residual activity reference
Target: Insulin receptor (Homo sapiens)
Settings: at 10 µM
Record the result as number plus unit.

Here is how some molecules turned out for residual activity.
{"molecular_string": "Oc1ccc(Nc2nc(-c3ccc(Cl)cc3)cs2)cc1", "subject_of_test": "Insulin receptor (Homo sapiens)", "residual activity": "103%"}
{"molecular_string": "COc1cc2ncnc(N3CCN(C(=O)Nc4ccc(Oc5ccccc5)cc4)CC3)c2cc1OC", "subject_of_test": "Insulin receptor (Homo sapiens)", "residual activity": "97%"}
{"molecular_string": "Ic1cccc(CSc2nnc(-c3ccncc3)o2)c1", "subject_of_test": "Insulin receptor (Homo sapiens)", "residual activity": "92%"}
{"molecular_string": "CO[C@H]1[C@@H](OC)C[C@H](C)[C@@H](OC)C2=CC(=O)C=C(NC(=O)/C(C)=C/C=C/[C@H](OC)[C@@H](OC(N)=O)/C(C)=C/[C@@H]1C)C2=O", "subject_of_test": "Insulin receptor (Homo sapiens)", "residual activity": "112%"}
{"molecular_string": "CO[C@@H]1[C@H](N(C)C(=O)c2ccccc2)C[C@H]2O[C@]1(C)n1c3ccccc3c3c4c(c5c6ccccc6n2c5c31)C(=O)NC4", "subject_of_test": "Insulin receptor (Homo sapiens)", "residual activity": "72%"}

Summary line: `COc1ccc(CNc2nc(N(CCO)CCO)nc3c2ncn3C(C)C)cc1` , Insulin receptor (Homo sapiens), reported residual activity = 77%

residual activity on Insulin receptor (Homo sapiens) for `O=C1NC(=O)/C(=C\c2ccc3nccnc3c2)S1` is 97%

Per the reported Insulin receptor (Homo sapiens) data, `COc1ccc(C(=O)Nc2sc3c(c2C(N)=O)CCCC3)cc1OC` has residual activity of 96%

The molecule `O=C1NC(=O)c2cc(Nc3ccc(F)cc3)c(Nc3ccc(F)cc3)cc21` , when measured on Insulin receptor (Homo sapiens), yielded residual activity of 85%

====

Target: cGMP-dependent protein kinase 1 (Homo sapiens)
Sequence (whole entry): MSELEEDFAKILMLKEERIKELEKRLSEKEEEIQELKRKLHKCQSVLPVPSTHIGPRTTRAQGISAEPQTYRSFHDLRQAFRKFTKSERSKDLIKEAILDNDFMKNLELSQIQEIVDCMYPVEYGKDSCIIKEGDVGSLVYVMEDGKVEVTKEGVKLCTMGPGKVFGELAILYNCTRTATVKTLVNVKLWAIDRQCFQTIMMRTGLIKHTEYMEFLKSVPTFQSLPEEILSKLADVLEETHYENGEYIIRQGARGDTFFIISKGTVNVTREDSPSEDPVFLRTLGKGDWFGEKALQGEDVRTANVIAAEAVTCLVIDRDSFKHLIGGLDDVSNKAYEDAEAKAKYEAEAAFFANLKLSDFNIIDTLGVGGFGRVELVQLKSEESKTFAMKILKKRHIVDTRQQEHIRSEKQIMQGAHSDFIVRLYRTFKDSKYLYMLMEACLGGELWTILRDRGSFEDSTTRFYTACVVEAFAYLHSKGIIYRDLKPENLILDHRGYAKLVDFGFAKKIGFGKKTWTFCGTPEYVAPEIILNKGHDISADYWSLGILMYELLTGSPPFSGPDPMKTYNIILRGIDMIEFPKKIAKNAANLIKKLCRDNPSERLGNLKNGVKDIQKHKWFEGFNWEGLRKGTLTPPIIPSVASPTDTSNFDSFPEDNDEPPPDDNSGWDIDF
Conditions: at 1 µM
observed_property: residual activity (%)
Answer in %, number only, no unit symbol.

{"molecular_string": "COc1cc2ncnc(N3CCN(C(=O)Nc4ccc(Oc5ccccc5)cc4)CC3)c2cc1OC", "recorded_measurement": 68}

Attention now shifts to the item below.
Lab note: measured residual activity of `Cc1ccc(NC2=CC(=O)c3sc(C)nc3C2=O)cc1` was 105
